Conditions: in n-propanol, 318.15 K
OBSERVED_PROPERTY: solubility (mole fraction)
# respond with the number and nothing more

Inquiry: Name the reported solubility (mole fraction) value associated with the molecule O=Cc1ccc(O)cc1
Reply text: 0.249

====

Details: in acetone, 280.65 K
OBSERVED_PROPERTY: solubility (mole fraction)
# respond with the number and nothing more

Inquiry: Name the reported solubility (mole fraction) value associated with the molecule O=Cc1ccc(O)cc1
Reply text: 0.0796

====

Conditions: in ethyl acetate, 318.15 K
OBSERVED_PROPERTY: solubility (mole fraction)

Inquiry: Name the reported solubility (mole fraction) value associated with the compound O=Cc1ccc(O)cc1
Reply text: 0.293
